# ASSAY INFO: qHTS profiling of the MIPE4 collection as inhibitors of Plasmodium falciparum (DD2) proliferation (Rep 2) (AID 743346)
# EXPERIMENTAL CONTEXT: P. falciparum Dd2 in erythrocytes, SYBR Green DNA, 72 h; at 28.5 µM unless noted
EXPERIMENTAL READOUT: parasite growth, % of control (lower = inhibition) (%)

COMPOUND: O=S(=O)(O)CCS
OBSERVED MEASUREMENT: 78.8

COMPOUND: COc1cc([C@@H]2c3cc4c(cc3[C@H](O)[C@H]3COC(=O)[C@H]23)OCO4)cc(OC)c1OC
OBSERVED MEASUREMENT: 10.2

COMPOUND: CNCC[C@H](Oc1cccc2ccccc12)c1cccs1
OBSERVED MEASUREMENT: 14.2

COMPOUND: Cc1nnc(NS(=O)(=O)c2ccc(N)cc2)s1
OBSERVED MEASUREMENT: 8.26

COMPOUND: C[C@@H](CN1CC(=O)NC(=O)C1)N1CC(=O)NC(=O)C1
OBSERVED MEASUREMENT: 105

COMPOUND: CC(=O)[C@H]1CC[C@H]2[C@@H]3CC=C4C[C@@H](O)CC[C@]4(C)[C@H]3CC[C@]12C
OBSERVED MEASUREMENT: 85.3

COMPOUND: CN1CCN(c2c(F)cc3c(=O)c(C(=O)O)cn4c3c2OCN4C)CC1
OBSERVED MEASUREMENT: 77.3

COMPOUND: O=C(O)c1cc(=O)[nH]c(=O)[nH]1
OBSERVED MEASUREMENT: 89

COMPOUND: CCOC(=O)[C@H](CCc1ccccc1)N[C@H]1CS[C@H](c2cccs2)CN(CC(=O)O)C1=O
OBSERVED MEASUREMENT: 6.49

COMPOUND: CCN[C@H]1C[C@H](C)S(=O)(=O)c2sc(S(N)(=O)=O)cc21
OBSERVED MEASUREMENT: 117

COMPOUND: CN(C)CCc1c[nH]c2ccc(CS(=O)(=O)N3CCCC3)cc12
OBSERVED MEASUREMENT: 86.7

COMPOUND: CN1CCN(c2c(F)cc3c(=O)c(C(=O)O)cn(CCF)c3c2F)CC1
OBSERVED MEASUREMENT: 106

COMPOUND: CC1CC2C3CCC4=CC(=O)C=C[C@]4(C)[C@@]3(F)[C@@H](O)C[C@]2(C)[C@@]1(O)C(=O)CO (some centres not stated)
OBSERVED MEASUREMENT: 85.8

COMPOUND: CCc1c2c(nc3ccc(OC(=O)N4CCC(N5CCCCC5)CC4)cc13)-c1cc3c(c(=O)n1C2)COC(=O)[C@]3(O)CC
OBSERVED MEASUREMENT: 67.7

COMPOUND: CN(C)c1ccc(C(=C2C=CC(=[N+](C)C)C=C2)c2ccc(N(C)C)cc2)cc1
OBSERVED MEASUREMENT: 6.31

COMPOUND: O=C(N[C@H](CO)[C@H](O)c1ccc([N+](=O)[O-])cc1)C(Cl)Cl
OBSERVED MEASUREMENT: 83.1

COMPOUND: CNS(=O)(=O)Cc1ccc2[nH]cc(CCN(C)C)c2c1
OBSERVED MEASUREMENT: 75.7

COMPOUND: NC(=O)c1cccc(N)c1
OBSERVED MEASUREMENT: 93.2

COMPOUND: O=C(O)c1cccnc1
OBSERVED MEASUREMENT: 95.2

COMPOUND: COc1cc2c(Nc3ccc(Br)cc3F)ncnc2cc1OCC1CCN(C)CC1
OBSERVED MEASUREMENT: 12.4

COMPOUND: C1CCC(C(CC2CCCCN2)C2CCCCC2)CC1 (configuration not stated)
OBSERVED MEASUREMENT: 7.73
